- Tested on: Streptococcus pneumoniae, penicillin susceptible
- MEASUREMENT_DESCRIPTION: Standard microdilution susceptibility test, clinical isolates
- Type: cell-based
- PARTICULARS: Streptococcus pneumoniae; 10 clinical isolates; read-out: MIC 50%
Parameter: MIC50. Scope: all listed entries.
Your answer should be a plain number; it is taken to be in µg/mL.

// worked examples, MIC50 included
MOLECULE	MEASUREMENT_UNITS	MIC50
CN(C)[C@@H]1C(O)=C(C(N)=O)C(=O)[C@@]2(O)C(O)=C3C(=O)c4c(O)cccc4[C@@](C)(O)[C@H]3[C@H](O)[C@@H]12	µg/mL	1
NC[C@H]1O[C@H](O[C@H]2[C@H](O)[C@@H](O[C@H]3O[C@H](CO)[C@@H](O)[C@H](N)[C@H]3O)[C@H](N)C[C@@H]2N)[C@H](N)C[C@@H]1O	µg/mL	16
CC1COc2c(N3CCN(C)CC3)c(F)cc3c(=O)c(C(=O)O)cn1c23 (stereo not shown)	µg/mL	2

// query Would you kindly share the measured MIC50 for CC[C@H]1OC(=O)[C@H](C)[C@@H](O[C@H]2C[C@@](C)(OC)[C@@H](O)[C@H](C)O2)[C@H](C)[C@@H](O[C@@H]2O[C@H](C)C[C@H](N(C)C)[C@H]2O)[C@](C)(O)C[C@@H](C)C(=O)[C@H](C)[C@@H](O)[C@]1(C)O ?
// result 0.03

---

- Test system: Enterococcus sp., vancomycin susceptible
- MEASUREMENT_DESCRIPTION: Standard microdilution susceptibility test, clinical isolates
- Type: cell-based
- PARTICULARS: 20 clinical isolates
Parameter: Ratio of Sensitive/Total. Scope: all listed entries.

// worked examples, Ratio of Sensitive/Total included
COMPOUND	Ratio of Sensitive/Total
CN(C)[C@@H]1C(O)=C(C(N)=O)C(=O)[C@@]2(O)C(O)=C3C(=O)c4c(O)cccc4[C@@](C)(O)[C@H]3[C@H](O)[C@@H]12	6/20
CC1COc2c(N3CCN(C)CC3)c(F)cc3c(=O)c(C(=O)O)cn1c23 (stereo not shown)	3/20
NC[C@H]1O[C@H](O[C@H]2[C@H](O)[C@@H](O[C@H]3O[C@H](CO)[C@@H](O)[C@H](N)[C@H]3O)[C@H](N)C[C@@H]2N)[C@H](N)C[C@@H]1O	0/20

Now for another entry.
// query Record CN[C@H](CC(C)C)C(=O)N[C@H]1C(=O)N[C@@H](CC(N)=O)C(=O)N[C@H]2C(=O)N[C@H]3C(=O)N[C@H](C(=O)N[C@H](C(=O)O)c4cc(O)cc(O)c4-c4cc3ccc4O)[C@H](O)c3ccc(c(Cl)c3)Oc3cc2cc(c3O[C@@H]2O[C@H](CO)[C@@H](O)[C@H](O)[C@H]2O[C@H]2C[C@](C)(N)[C@H](O)[C@H](C)O2)Oc2ccc(cc2Cl)[C@H]1O : what is its Ratio of Sensitive/Total with Enterococcus sp., vancomycin susceptible?
// result 20/20

---

Parameter: Ratio of Sensitive/Total. Scope: all listed entries.
- Test system: Staphylococcus aureus, methicillin susceptible
- MEASUREMENT_DESCRIPTION: Standard microdilution susceptibility test, clinical isolates
- Format: cell-based
- PARTICULARS: 10 clinical isolates

COMPOUND	MEASURED_TARGET	RESULT
NC[C@H]1O[C@H](O[C@H]2[C@H](O)[C@@H](O[C@H]3O[C@H](CO)[C@@H](O)[C@H](N)[C@H]3O)[C@H](N)C[C@@H]2N)[C@H](N)C[C@@H]1O	Staphylococcus aureus, methicillin susceptible	10/10
CN(C)[C@@H]1C(O)=C(C(N)=O)C(=O)[C@@]2(O)C(O)=C3C(=O)c4c(O)cccc4[C@@](C)(O)[C@H]3[C@H](O)[C@@H]12	Staphylococcus aureus, methicillin susceptible	8/10
CC1COc2c(N3CCN(C)CC3)c(F)cc3c(=O)c(C(=O)O)cn1c23 (stereo not shown)	Staphylococcus aureus, methicillin susceptible	10/10

// query Would you kindly share the measured Ratio of Sensitive/Total for CN[C@H](CC(C)C)C(=O)N[C@H]1C(=O)N[C@@H](CC(N)=O)C(=O)N[C@H]2C(=O)N[C@H]3C(=O)N[C@H](C(=O)N[C@H](C(=O)O)c4cc(O)cc(O)c4-c4cc3ccc4O)[C@H](O)c3ccc(c(Cl)c3)Oc3cc2cc(c3O[C@@H]2O[C@H](CO)[C@@H](O)[C@H](O)[C@H]2O[C@H]2C[C@](C)(N)[C@H](O)[C@H](C)O2)Oc2ccc(cc2Cl)[C@H]1O ?
// result 10/10

---

- Tested on: Coagulase-negative Staphylococus sp., methicillin susceptible
- MEASUREMENT_DESCRIPTION: Standard microdilution susceptibility test, clinical isolates
- Assay type: cell-based
- PARTICULARS: 10 clinical isolates; read-out: MIC 50%
Parameter: MIC50. Scope: all listed entries.
Your answer should be a plain number; it is taken to be in µg/mL.

// worked examples, MIC50 included
MOLECULE	MEASURED_TARGET	NUMBER
NC[C@H]1O[C@H](O[C@H]2[C@H](O)[C@@H](O[C@H]3O[C@H](CO)[C@@H](O)[C@H](N)[C@H]3O)[C@H](N)C[C@@H]2N)[C@H](N)C[C@@H]1O	Coagulase-negative Staphylococus sp., methicillin susceptible	0.06
CN(C)[C@@H]1C(O)=C(C(N)=O)C(=O)[C@@]2(O)C(O)=C3C(=O)c4c(O)cccc4[C@@](C)(O)[C@H]3[C@H](O)[C@@H]12	Coagulase-negative Staphylococus sp., methicillin susceptible	0.25
CC[C@H]1OC(=O)[C@H](C)[C@@H](O[C@H]2C[C@@](C)(OC)[C@@H](O)[C@H](C)O2)[C@H](C)[C@@H](O[C@@H]2O[C@H](C)C[C@H](N(C)C)[C@H]2O)[C@](C)(O)C[C@@H](C)C(=O)[C@H](C)[C@@H](O)[C@]1(C)O	Coagulase-negative Staphylococus sp., methicillin susceptible	0.125

Now for another entry.
// query Would you kindly share the measured MIC50 for CC1COc2c(N3CCN(C)CC3)c(F)cc3c(=O)c(C(=O)O)cn1c23 (stereo not shown) ?
// result 1

---

- Test system: Coagulase-negative Staphylococus sp., methicillin resistant
- MEASUREMENT_DESCRIPTION: Standard microdilution susceptibility test, clinical isolates
- Type: cell-based
- PARTICULARS: 10 clinical isolates; read-out: MIC 50%
OBSERVABLE: MIC50 (mg/L)
Your answer should be a plain number; it is taken to be in mg/L.

// worked examples, MIC50 included
COMPOUND	MIC50, mg/L
CN(C)[C@@H]1C(O)=C(C(N)=O)C(=O)[C@@]2(O)C(O)=C3C(=O)c4c(O)cccc4[C@@](C)(O)[C@H]3[C@H](O)[C@@H]12 [Oxytetracycline]	1
CC[C@H]1OC(=O)[C@H](C)[C@@H](O[C@H]2C[C@@](C)(OC)[C@@H](O)[C@H](C)O2)[C@H](C)[C@@H](O[C@@H]2O[C@H](C)C[C@H](N(C)C)[C@H]2O)[C@](C)(O)C[C@@H](C)C(=O)[C@H](C)[C@@H](O)[C@]1(C)O [Erythromycin]	0.25

Now for another entry.
// query Would you kindly share the measured MIC50 for NC[C@H]1O[C@H](O[C@H]2[C@H](O)[C@@H](O[C@H]3O[C@H](CO)[C@@H](O)[C@H](N)[C@H]3O)[C@H](N)C[C@@H]2N)[C@H](N)C[C@@H]1O [Tobramycin] ?
// result 0.06

---

- Tested on: Staphylococcus aureus, methicillin resistant
- MEASUREMENT_DESCRIPTION: Standard microdilution susceptibility test, clinical isolates
- Type: cell-based
- PARTICULARS: 10 clinical isolates
OBSERVABLE: Ratio of Sensitive/Total

// query Record CC1COc2c(N3CCN(C)CC3)c(F)cc3c(=O)c(C(=O)O)cn1c23 (stereo not shown) : what is its Ratio of Sensitive/Total with Staphylococcus aureus, methicillin resistant?
// result 1/10

// query Try this molecule too: NC[C@H]1O[C@H](O[C@H]2[C@H](O)[C@@H](O[C@H]3O[C@H](CO)[C@@H](O)[C@H](N)[C@H]3O)[C@H](N)C[C@@H]2N)[C@H](N)C[C@@H]1O
// result 6/10

// query Try this molecule too: CN(C)[C@@H]1C(O)=C(C(N)=O)C(=O)[C@@]2(O)C(O)=C3C(=O)c4c(O)cccc4[C@@](C)(O)[C@H]3[C@H](O)[C@@H]12
// result 10/10

// query Try this molecule too: CN[C@H](CC(C)C)C(=O)N[C@H]1C(=O)N[C@@H](CC(N)=O)C(=O)N[C@H]2C(=O)N[C@H]3C(=O)N[C@H](C(=O)N[C@H](C(=O)O)c4cc(O)cc(O)c4-c4cc3ccc4O)[C@H](O)c3ccc(c(Cl)c3)Oc3cc2cc(c3O[C@@H]2O[C@H](CO)[C@@H](O)[C@H](O)[C@H]2O[C@H]2C[C@](C)(N)[C@H](O)[C@H](C)O2)Oc2ccc(cc2Cl)[C@H]1O
// result 10/10

Values from patent US20140303105A1
